Reference for the values: the supplement of paper PMC10567573

B1: PRPH (parent)
chain: RTFGPPPSLSPGAFSYSSSSRFSS

# Variants of: B1
# Measurement protocol: protein stability index of a GFP-peptide fusion (GPS, HEK-293T) (PSI 1-6); higher = more stable;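 further: lentivirally expressed fusions sorted by FACS into six bins by GFP to DsRed ratio, PSI derived from sequencing read proportions per bin multiplied by bin number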
# Stated conditions: c terminus: a fixed tail appended
Measured protein stability index, listed per entry for reference.

>  <Mutant label>
G4N

>  <protein stability index>
3.12

$$$$
>  <Mutant label>
L9Y

>  <protein stability index>
2.94

$$$$
>  <Mutant label>
F22G

>  <protein stability index>
4.16

$$$$
>  <Mutant label>
S8C

>  <protein stability index>
3.04

$$$$
>  <Mutant label>
G12N

>  <protein stability index>
3.14

$$$$
>  <Mutant label>
P6M

>  <protein stability index>
2.8

$$$$
>  <Mutant label>
G4M

>  <protein stability index>
3.08

$$$$
>  <Mutant label>
S19R

>  <protein stability index>
3.5

$$$$
>  <Mutant label>
P5M

>  <protein stability index>
2.6

$$$$
>  <Mutant label>
S10E

>  <protein stability index>
3.23

$$$$
>  <Mutant label>
A13P

>  <protein stability index>
3.21

$$$$
>  <Mutant label>
R1W

>  <protein stability index>
2.81

$$$$
>  <Mutant label>
P7F

>  <protein stability index>
2.34

$$$$
>  <Mutant label>
T2L

>  <protein stability index>
2.43

$$$$
>  <Mutant label>
Y16L

>  <protein stability index>
3.95

$$$$
>  <Mutant label>
P5V

>  <protein stability index>
2.89

$$$$
>  <Mutant label>
S19I

>  <protein stability index>
2.45

$$$$
>  <Mutant label>
S18H

>  <protein stability index>
2.8

$$$$
>  <Mutant label>
L9G

>  <protein stability index>
3.64

$$$$
>  <Mutant label>
S19L

>  <protein stability index>
2.93

$$$$
>  <Mutant label>
R1V

>  <protein stability index>
1.97

$$$$
>  <Mutant label>
P6N

>  <protein stability index>
3.1

$$$$
>  <Mutant label>
P5D

>  <protein stability index>
3.35

$$$$
>  <Mutant label>
R21K

>  <protein stability index>
3.5

$$$$
>  <Mutant label>
S10G

>  <protein stability index>
3.46

$$$$
>  <Mutant label>
Y16I

>  <protein stability index>
3.31

$$$$
>  <Mutant label>
R1Q

>  <protein stability index>
3.62

$$$$
>  <Mutant label>
P6R

>  <protein stability index>
3.02

$$$$
>  <Mutant label>
P7D

>  <protein stability index>
3.45

$$$$
>  <Mutant label>
A13S

>  <protein stability index>
2.73

$$$$
>  <Mutant label>
A13Q

>  <protein stability index>
3.62

$$$$
>  <Mutant label>
S24M

>  <protein stability index>
2.55

$$$$
>  <Mutant label>
S20T

>  <protein stability index>
2.94

$$$$
>  <Mutant label>
S17V

>  <protein stability index>
2.75

$$$$
>  <Mutant label>
R21D

>  <protein stability index>
3.3

$$$$
>  <Mutant label>
S24Q

>  <protein stability index>
3.31

$$$$
>  <Mutant label>
S23Q

>  <protein stability index>
3.47

$$$$
>  <Mutant label>
S23A

>  <protein stability index>
3.17

$$$$
>  <Mutant label>
P7Q

>  <protein stability index>
3.13

$$$$
>  <Mutant label>
S23C

>  <protein stability index>
3.02

$$$$
>  <Mutant label>
R1M

>  <protein stability index>
2.29

$$$$
>  <Mutant label>
P5S

>  <protein stability index>
2.99

$$$$
>  <Mutant label>
S18M

>  <protein stability index>
2.75

$$$$
>  <Mutant label>
S24C

>  <protein stability index>
2.83

$$$$
>  <Mutant label>
T2D

>  <protein stability index>
3.21

$$$$
>  <Mutant label>
F22C

>  <protein stability index>
3.82

$$$$
